Origin of measurements: PubChem BioAssay (NCI)

Please respond with reported growth for every item in the list.
- Tested on: OVCAR-3 ovarian
- Assay Details: NCI-60 one-dose screen, 48 h (100 = growth as untreated, 0 = no growth, -100 = all killed)
- Run Conditions: 10 µM unless noted
The panel holds about 83,000 compounds, 20% with a hit somewhere; the sample as a whole holds those more often.
Field format: number, assumed %, no unit text.

// sample CN=S(=O)(NC(=O)c1ccc(Cl)cc1Cl)c1ccc(Br)s1 (configuration not stated) , its growth was 109

Record CCn1cc(C(=O)O)c(=O)c2cc(F)c(N3CCN(S(=O)(=O)c4cccc5ccccc45)CC3)cc21 , field growth: -6.25

get_value(item= Cc1ccc2c(c1)C(C)Cc1c(ncnc1-n1cnc3ccccc31)N2C (configuration not stated) , readout=growth) returns -34.7

Sure, the documented growth for CCC(=O)Nc1ccccc1C#C/C=C\C#Cc1ccccc1SC is 65

Lab note: measured growth of O=Nc1c(-c2c(O)[nH]c3ccc([N+](=O)[O-])cc23)[nH]c2ccc(O)cc12 was 4.31

Reported growth for COc1ccc(/C(=N\O)c2cc(OC)c(OC)c(OC)c2)c(OC)c1N was -25.1

So for COc1cc(-c2cc(/C=C3\CCCCC3=O)[nH]n2)cc(OC)c1OC , the logged growth turned out to be 104

// field: growth; key: O=C(O)c1cn(C2CC2)c2cc(N3CCN(S(=O)(=O)c4ccc(Cl)c(Cl)c4)CC3)c(F)cc2c1=O ; value = 9.87

Entry under test: COc1ccc(S(=O)(=O)Nc2cc(/C=C\c3cc(OC)c(OC)c(OC)c3)cc(OC)c2OC)cc1OC . Its growth was -18.2

Quick note, growth for COc1cc(OC)c(C(=O)/C=C/c2cccc(C(F)(F)F)c2)c(OC)c1 landed at 17.5

The compound listed as CSc1ccccc1C#C/C=C\C#Cc1ccccc1N1CCCC1=O has a reported growth of 50.9

For reference, reported growth for Cc1oc2nc[nH]c(=O)c2c1C(=O)/C=C/c1ccc(Cl)cc1Cl stands at 48.6

Measured growth of CCN(Cc1ccc(CN(CC)C(=O)C(Br)Br)cc1)C(=O)C(Br)Br : 8.57

growth reported for this compound COc1ccc(C(=O)c2cc(OC)c(OC)c(OC)c2)cc1/C=C/C(=O)c1ccc(O)cc1 : -10.5

Noted for O=c1cc(C2NCCc3c2[nH]c2ccccc32)c2c(ccc3ccccc32)o1 (configuration not stated) : its growth reads 95.1

// CNC(=O)c1cc(Oc2ccc3c(c2)sc2nc(-c4ccc(Cl)cc4)cn23)ccn1 : growth value = 82.7

growth measured on CC[C@H](C)[C@H]1NC(=O)[C@@H](N[C@](C)(O)[C@@H](N)CC(C)C)[C@@H](C)OC(=O)[C@H](Cc2ccc(OC)cc2)N(C)C(=O)[C@@H]2CCCN2C(=O)[C@H](CC(C)C)NC(=O)[C@@H](C)C(=O)[C@H](C(C)C)OC(=O)C[C@@H]1O = -20.8

get_value(item= COc1ccc(C2NC3=C(CCCC3)C(C#N)(C#N)C2(C#N)C#N)cc1 (configuration not stated) , readout=growth) returns 43

The reported value for COc1cccc2cc(-c3cc4ccccc4[nH]3)/c(=N/C(=S)Nc3ccccc3)oc12 in terms of growth is 80.5

Short answer for CCN(CC)S(=O)(=O)c1ccc2[nH]c(=O)cc(C(=O)Nc3ccc(OC)cc3OC)c2c1 : growth was 118

Form: compound = O=C(CNc1c(Cl)cccc1Cl)Nc1ccc(-c2nc3ccccc3s2)cc1 ; growth = 54.4

Measured growth of COc1ccc(-c2nc(-c3ccccc3)c(-c3ccccc3)n2C2CC2)cc1OC1CCCCC1 : 58.4

Record summary for C=CC(=O)N[C@H](/C=C/C(=O)OCC)Cc1ccc(-c2cc(Cl)cc(Cl)c2)cc1 : reported growth = 89.5

Noted for CCOC(=O)c1cc(/C(=N\O)c2cc(OC)c(OC)c(OC)c2)n2c(C)cccc12 : its growth reads 15.7

Lab note: COc1ccc2c(c1)C(C)Cc1c(N(C)C)ncnc1N2C (configuration not stated) gave growth of 10.3

Record Cc1cc(Nc2nc(-c3ccc(F)cc3)nc3ccccc23)n[nH]1 . Reported growth: 61.5

// growth value for O=[N+]([O-])c1c(S(=O)(=O)O)cc2cc(S(=O)(=O)O)ccc2c1[N+](=O)[O-] : 104
